All figures here come from PubChem BioAssay (NCI).

test-description: NCI Yeast Anticancer Drug Screen. Data for the mlh1 rad18 strain (AID 175)
assay-setup: S. cerevisiae mlh1 rad18 strain growth inhibition, stronger effect = higher value; at 50.0 µM unless noted
The panel holds about 79,000 compounds, 15% with a hit somewhere; the sample as a whole holds those more often.
Quick rule for you: growth inhibition at 10% or higher means fulfilled, lower means not fulfilled.

>>> print(df.to_string())
                  cpd_smiles  category_label
0  COc1ccc(/C=N/NC(=S)NN)cc1       fulfilled

Check if growth inhibition >= 10% (inclusive). Item: NNC(=O)c1c(O)ccc2ccccc12
fulfilled

Check if growth inhibition >= 10% (inclusive). Item: O=c1[nH][nH]c(=O)c2c([N+](=O)[O-])cccc12
not fulfilled

Check if growth inhibition >= 10% (inclusive). Item: COc1ccc(N=C2C(=Nc3ccc(OC)cc3)N(c3ccccc3)C(=S)N2N=C=C2Sc3ccccc3N2C)cc1
not fulfilled

Check if growth inhibition >= 10% (inclusive). Item: COc1ccc(C=C(C(=O)O)C(=O)O)cc1
fulfilled

----------
test-description: NCI Yeast Anticancer Drug Screen. Data for the rad50 strain (AID 155);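 note: 0% = growth of vehicle-only cultures of the same strain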
assay-setup: S. cerevisiae rad50 strain growth inhibition, stronger effect = higher value; at 50.0 µM unless noted
About 79,000 compounds went through this panel and 15% of them were active in at least one assay; those are over-represented in the sample as a whole.
measured-metric: growth inhibition (%)
The response must be a number in % with no trailing unit.

A selection of reference data follows.
                                   compound  quantitative_result
0  CC1=Nc2cc(Cl)c(Cl)cc2N(C)/C1=C/C1=C(Cl)C(=O)c2cc3c(Cl)ccc(Cl)c3cc2C1=O                -0.05
1  COC(=O)NCC1OCC2OC(C)(C)OC12 (configuration not stated)                 14.8
2                      S=C(c1ccco1)N1CCOCC1                 14.8
3  CC(C)(Br)C(Br)CCC(C)(Br)C(Br)CO (configuration not stated)                 10.9
4  CC(=O)NC(C)c1ccccc1 (configuration not stated)                -4.75
5  CCN(CC)CCn1c2cc3c(cc2c(=O)c2cccnc21)OCO3                -18.1

Identify measured growth inhibition associated with COc1ccccc1OC(=O)c1ccc(Cl)cc1
2.2

Identify measured growth inhibition associated with Cc1cc(C)cc(N(C2=NCCS2)C2=NCCS2)c1
5

Identify measured growth inhibition associated with NC(=O)c1ccc(F)cc1
-42.3

Identify measured growth inhibition associated with CC(O)C(=O)N(CCO)c1ccccc1 (configuration not stated)
13.4

Identify measured growth inhibition associated with CS(=O)(=O)c1ccc(/C(=N/N)c2ccccc2)cc1
1.65

Identify measured growth inhibition associated with CCCCOP(=O)(Nc1ccc([N+](=O)[O-])cc1)OCCCC
94.1

Identify measured growth inhibition associated with CC(=O)CCOC(=O)c1cc([N+](=O)[O-])cc([N+](=O)[O-])c1
13.2

----------
test-description: NCI Yeast Anticancer Drug Screen. Data for the mec2-1 strain (AID 157)
assay-setup: S. cerevisiae mec2-1 strain, stronger effect = higher value; at 50.0 µM unless noted
The panel holds about 79,000 compounds, 15% with a hit somewhere; the sample as a whole holds those more often.
Below is a list of entries, each paired with its recorded growth inhibition value.
The response must be a number in % with no trailing unit.

                                   molecule  unit_symbol  quantitative_result
0   Cc1ccc(S(=O)(=O)NC(=O)NNc2ccc(F)cc2)cc1            %                 2.15
1  O=C(c1ccccc1)N1CCC(Nc2nccs2)O1 (stereo not drawn)            %                -26.1
2  CCOC1=Nc2ccccc2C1(C)CCO (stereo not drawn)            %                -13.2
3  Cc1ccc(S(=O)(=O)OCCN(CCOS(=O)(=O)c2ccc(C)cc2)c2cccc([N+](=O)[O-])c2)cc1            %                 8.85
4  Cc1c(OCCCOc2ccc3c(=O)cc(-c4ccccc4)oc3c2C)ccc2c(=O)cc(-c3ccccc3)oc12            %                -18.1
5  NCC1COC(c2ccccc2)(c2ccccc2)O1 (stereo not drawn)            %                -12.4

Identify measured growth inhibition associated with COC1=CC(=O)C2CC=CC(CC(=O)O)C2(C)C1=O (stereo not drawn)
-2.4

Identify measured growth inhibition associated with COC(=O)C(=O)c1c(C(=O)OC)nc2nnc(N)n2c1-c1cccc([N+](=O)[O-])c1
-4.35

Identify measured growth inhibition associated with CC(=C=CC(c1ccccc1)(c1ccccc1)c1ccccc1)CC(c1ccccc1)(c1ccccc1)c1ccccc1
97.8

Identify measured growth inhibition associated with Cc1ccc(C)n1-n1c(Cc2ccccc2)n[nH]c1=O
-19.3

Identify measured growth inhibition associated with CCCCCCCCCCCCCCCCS(=O)(=O)N(/N=c1/sc2ccccc2n1C)C(=O)OCC
-32.3

Identify measured growth inhibition associated with O=C(O)COc1ccc(F)cc1F
-3.05

Identify measured growth inhibition associated with CCOC(=O)NNC(=O)Nc1ccc(O[Si](C)(C)C)cc1
10

----------
test-description: NCI Yeast Anticancer Drug Screen. Data for the sgs1 mgt1 strain (AID 161);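 note: 0% = growth of cultures given vehicle only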
assay-setup: S. cerevisiae sgs1 mgt1 strain, stronger effect = higher value; at 50.0 µM unless noted
About 79,000 compounds went through this panel and 15% of them were active in at least one assay; those are over-represented in the sample as a whole. Active and inactive are the calls of the source. No stated cut-off is given here; in the data, active means growth inhibition above about 70%; inactive means the rest.
measured-metric: growth inhibition

A selection of reference data follows.
In [3]: df
Out[3]:
                                   molecule            result
0  CCOC(=O)C(C)NC(=O)C(C)NC(=O)C(C)NC(=O)C(C)NC(=O)C(C)NC(=O)OCc1ccccc1 (stereo not drawn)  7.15% (inactive)
1                     CCCC(=O)N(C(C)C)C(C)C  12.5% (inactive)

The record that follows has no growth inhibition shown yet.
Identify measured growth inhibition associated with Clc1ccc(OCC(COc2ccccc2)Oc2nc(-c3ccccc3)nc(-c3ccccc3)n2)cc1 (stereo not drawn)
3.1% (inactive)

----------
test-description: NCI Yeast Anticancer Drug Screen. Data for the rad50 strain (AID 155);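 note: 0% = growth of vehicle-only cultures of the same strain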
assay-setup: S. cerevisiae rad50 strain growth inhibition, stronger effect = higher value; at 50.0 µM unless noted
Compounds without any hit were thinned out: in the full panel of roughly 79,000, 15% have a hit.
Below is a list of entries, each paired with its recorded growth inhibition value.
The response must be a number in % with no trailing unit.

compound	unit-symbol	growth inhibition
Cc1ccc2c(-c3cccc4ccccc34)c3ccccc3cc2c1	%	5.45
COc1ccc(-c2nc(N)c3ncn(C4OC(CO)C(O)C4O)c3n2)cc1 (configuration not stated)	%	-13.2

Identify measured growth inhibition associated with O=c1c2ccc(Cl)cc2nc2nc(-c3ccccc3)c3cc(Cl)ccc3n12
57.6

----------
test-description: NCI Yeast Anticancer Drug Screen. Data for the sgs1 mgt1 strain (AID 161);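 note: 0% = growth of cultures given vehicle only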
assay-setup: S. cerevisiae sgs1 mgt1 strain; at 50.0 µM unless noted
The panel holds about 79,000 compounds, 15% with a hit somewhere; the sample as a whole holds those more often. Calls of active or inactive are those of the source. No stated cut-off is given here; in the data, active means growth inhibition above about 70%; inactive means the rest.
Tick one outcome: Y for active, N for inactive

Status in this test for OCC#CC#CCO ?
N

Status in this test for OC(c1ccc(OCc2ccccc2)cc1)c1ccccn1 (centres undefined) ?
N

Status in this test for CCOC(=O)C(CC(C)C)NC(=O)c1ccc(C)c(OCc2ccccc2)c1[N+](=O)[O-] (centres undefined) ?
N

Status in this test for CCOCNC(=O)NCC(F)(F)C(F)(F)C(F)(F)C(F)(F)C(F)(F)C(F)(F)C(F)(F)F ?
N

Status in this test for CNC(=O)OCc1cc(C)cc(C)c1-c1ccco1 ?
N

Status in this test for C=CC(=O)NC12CC3CC(CC(C3)C1)C2 ?
N

Status in this test for COc1ccc(/C=C2\N=C3N(Cc4ccccc4)C=C(N)N3C2=O)cc1 ?
N

Status in this test for COc1ccc2nc3cc(Cl)ccc3c(SCC(=O)Nc3ccccc3-c3ccccc3NC(=O)CSc3c4ccc(Cl)cc4nc4ccc(OC)cc34)c2c1 ?
N

Status in this test for COC1=C2CC(C)CC(OC)C(O)C(C)/C=C(\C)C(OC(N)=O)C(OC)/C=C\C=C(/C)C(=O)NC(=C(/C=N/N3CCCCC3)C1=O)C2=O (centres undefined) ?
N

Status in this test for O=C1c2c(Br)sc(Br)c2C(NC(=O)C(F)(F)F)C1O (centres undefined) ?
N

Status in this test for C#CC(=O)CCC ?
N

Status in this test for CCCCCCCC(=O)C1C(=O)OC(C)(C)OC1=O ?
N
